- procedureSummary: Glycan microarray analysis
- Format: binding
- assayConditions: biotin-CSC HP, Cy3-streptavidin
parameterMeasured: binding to glycan 26

> print(dat)
                                  substance     parametermeasured  measuredresult
1  FSGGGNH (Cancer Stem Cell Targeting Peptide) [CSC HP-3, synthetic peptide that targets cancer stem cells]  binding to glycan 26    weakly bound
2  ELTPLTL (Cancer Stem Cell Targeting Peptide) [CSC HP-8, synthetic peptide that targets cancer stem cells]  binding to glycan 26    weakly bound
